Origin of measurements: the supplement of paper PMC12669032

# Test system: Collinsella aerofaciens
# ASSAY: growth AUC relative to DMSO control (median of replicates) (fraction); higher = more growth (less inhibition), active = hit call of the paper
# CONDITION LABEL: 20 µM; 24 h
Mark not fulfilled for growth AUC values under 1, and fulfilled for everything at or above.

MOLECULE | CATEGORY LABEL
N#Cc1nn(-c2c(Cl)cc(C(F)(F)F)cc2Cl)c(N)c1S(=O)(=O)C(F)(F)F | fulfilled
CC1(C)CN=C(NN=C(/C=C/c2ccc(C(F)(F)F)cc2)/C=C/c2ccc(C(F)(F)F)cc2)NC1 | fulfilled
OC(Cc1ccccc1Cl)(Cn1cncn1)C1(Cl)CC1 (stereo not drawn) | not fulfilled
COC(=O)c1ccccc1CS(=O)(=O)NC(=O)Nc1nc(OC)cc(OC)n1 | not fulfilled
CCCCCCCCCc1ccc(O)cc1 | not fulfilled
Cc1occc1C(=O)Nc1ccccc1 | not fulfilled
CCc1nn(C)c(C(=O)NCc2ccc(Oc3ccc(C)cc3)cc2)c1Cl | not fulfilled
COC(=O)C(C)Oc1ccc(Oc2ccc(Cl)cc2Cl)cc1 (stereo not drawn) | not fulfilled
CCOP(=S)(OCC)Oc1ccc([N+](=O)[O-])cc1 | fulfilled
O=C(O)c1c(Cl)ccc2cc(Cl)cnc12 | not fulfilled

====

This listing pairs compounds with measured growth AUC.
# Tested on: Collinsella aerofaciens
# ASSAY: growth AUC relative to DMSO control (median of replicates) (fraction); higher = more growth (less inhibition), active = hit call of the paper
# CONDITION LABEL: 20 µM; 24 h

COMPOUND | growth AUC
O=[N+]([O-])/N=C1\NCCN1Cc1ccc(Cl)nc1 | 0.98 (inactive)
CCS(=O)(=O)Cc1ccccc1OC(=O)NC | 1.05 (inactive)
CC1(C)[C@H](C=C(Cl)Cl)[C@H]1C(=O)OCc1c(F)c(F)cc(F)c1F | 1 (inactive)
COCC(=O)N(c1c(C)cccc1C)[C@H](C)C(=O)OC | 1.04 (inactive)
Clc1c(Cl)c(Cl)c(Cl)c(Cl)c1Cl | 1.06 (inactive)
CC(C)OP(=O)(OC(C)C)SCc1ccccc1 | 1 (inactive)
Cc1cccc2sc3nncn3c12 | 1.07 (inactive)
CN(C)C(=S)SSC(=S)N(C)C | 0.957 (inactive)
C[C@@H]1C[C@@H]([C@H](O)CC2CC(=O)NC(=O)C2)C(=O)[C@@H](C)C1 | 0.989 (inactive)
CC(=O)O.NC(N)=NCCCCCCCCNCCCCCCCCN=C(N)N | 0.618 (active)
O=NN(CCO)CCO | 0.994 (inactive)
COP(=O)(OC)O/C(=C\Cl)c1ccc(Cl)cc1Cl | 0.997 (inactive)
CCOP(=S)(OCC)SCn1c(=O)oc2cc(Cl)ccc21 | 0.991 (inactive)
COC(=O)Nc1nc2ccccc2[nH]1 | 1.03 (inactive)
OC(Cn1cncn1)(c1ccc(F)cc1)c1ccccc1F (stereo not drawn) | 0.985 (inactive)
Cc1cc(Cl)ccc1N=CN(C)C | 1 (inactive)
CC(Oc1ccc(Oc2ncc(C(F)(F)F)cc2Cl)cc1)C(=O)O (stereo not drawn) | 0.967 (inactive)
CN(C)S(=O)(=O)N(SC(F)(Cl)Cl)c1ccccc1 | 0.98 (inactive)
COc1ccc(/C(=C/C(=O)N2CCOCC2)c2ccc(Cl)cc2)cc1OC | 0.93 (inactive)
CC(C)N(C(=O)COc1nnc(C(F)(F)F)s1)c1ccc(F)cc1 | 1.01 (inactive)
C[C@@H](Oc1ccc(Oc2ncc(C(F)(F)F)cc2Cl)cc1)C(=O)O | 0.994 (inactive)
C=C(C)CN(CC)c1c([N+](=O)[O-])cc(C(F)(F)F)cc1[N+](=O)[O-] | 1 (inactive)
CCNc1nc(NCC)nc(SC)n1 | 0.996 (inactive)
ClC(Cl)=C(c1ccc(Cl)cc1)c1ccc(Cl)cc1 | 0.842 (inactive)
CCC(C)n1c(=O)[nH]c(C)c(Br)c1=O (stereo not drawn) | 0.96 (inactive)
COS(=O)(=O)[O-].Cn1c(-c2ccccc2)cc(-c2ccccc2)[n+]1C | 0.989 (inactive)
CCOc1ccc(C(C)(C)COCc2cccc(Oc3ccccc3)c2)cc1 | 0.967 (inactive)
CNc1nc(C)c(C)c(OC(=O)N(C)C)n1 | 0.994 (inactive)
Cc1ccn2nc(S(=O)(=O)Nc3c(F)cccc3F)nc2n1 | 0.945 (inactive)
Clc1cc(Cl)c(Cl)cc1Cl | 1.01 (inactive)
O=S(=O)(c1ccccc1)c1ccccc1 | 0.964 (inactive)
O=C1C2CC=CCC2C(=O)N1SC(Cl)(Cl)Cl (stereo not drawn) | 1.02 (inactive)
COC(=O)c1ccccc1S(=O)(=O)NC(=O)Nc1nc(C)nc(OC)n1 | 0.957 (inactive)
Cc1ccc(N=CN(C)C=Nc2ccc(C)cc2C)c(C)c1 | 1.01 (inactive)
CC(Oc1ccc(Oc2ccc(Cl)cc2Cl)cc1)C(=O)O (racemic) | 0.995 (inactive)
CCOP(=S)(OCC)Oc1cnc2ccccc2n1 | 0.992 (inactive)
CCSC(=O)N1CCCCCC1 | 0.981 (inactive)
Nc1c(Cl)c(Cl)c(Cl)c(Cl)c1Cl | 1 (inactive)

====

This listing pairs compounds with measured growth AUC.
# Test system: Parabacteroides merdae
# ASSAY: growth AUC relative to DMSO control (median of replicates) (fraction); higher = more growth (less inhibition), active = hit call of the paper
# CONDITION LABEL: 20 µM; 24 h
MEASURED ENDPOINT: growth AUC

COMPOUND | MEASURED ENDPOINT | REPORTED VALUE
CCCSP(=O)(OCC)SCCC | growth AUC | 1.01
O=C1c2ccccc2C(=O)N1SC(Cl)(Cl)Cl | growth AUC | 1.05
COC(=O)Nc1cccc(OC(=O)Nc2cccc(C)c2)c1 | growth AUC | 0.968
CCc1ccc(C(=O)NN(C(=O)c2cc(C)cc(C)c2)C(C)(C)C)cc1 | growth AUC | 0.945
CC(C)(C)C(O)C(Cc1ccc(Cl)cc1Cl)n1cncn1 (mixture of isomers) | growth AUC | 0.889
CCS(=O)(=O)CCSP(=O)(OC)OC | growth AUC | 0.988
CC(C)N1C(=O)N(c2ccccc2)CSC1=NC(C)(C)C | growth AUC | 0.997
CCNc1nc(Cl)nc(NC(C)(C)C)n1 | growth AUC | 0.979
CCO/N=C(\CC)C1=C(O)CC(c2c(C)cc(C)cc2C)CC1=O (configuration not stated) | growth AUC | 0.909
CCCOCCN(C(=O)CCl)c1c(CC)cccc1CC | growth AUC | 0.942
ClC1=C(Cl)[C@]2(Cl)C3CC=CC3[C@@]1(Cl)C2(Cl)Cl (some centres not stated) | growth AUC | 0.984
O=[N+]([O-])c1ccccc1 | growth AUC | 1.03
CC(C)=CC1C(C(=O)OCN2C(=O)C3=C(CCCC3)C2=O)C1(C)C (configuration not stated) | growth AUC | 0.972
CCS(=O)(=O)c1nc2ccccn2c1S(=O)(=O)NC(=O)Nc1nc(OC)cc(OC)n1 | growth AUC | 1.02
CS(=O)(=O)c1cc(C(F)(F)F)ccc1C(=O)c1cnoc1C1CC1 | growth AUC | 1.02
O=C(O)c1cc(Oc2ccc(C(F)(F)F)cc2Cl)ccc1[N+](=O)[O-] | growth AUC | 0.971
CNc1nc(C)c(C)c(OC(=O)N(C)C)n1 | growth AUC | 0.998
CCOP(=S)(OCC)SCS(=O)(=O)C(C)(C)C | growth AUC | 0.986
O=[N+]([O-])c1c(Cl)c(Cl)c(Cl)c(Cl)c1Cl | growth AUC | 0.942
CO/C=C(/C(=O)OC)c1ccccc1COc1cccc(C(F)(F)F)n1 | growth AUC | 0.924
COP(=S)(OC)Oc1ccc(S(=O)(=O)N(C)C)cc1 | growth AUC | 0.969
C1CCC(NC2CCCCC2)CC1.O=NO | growth AUC | 0.753
Clc1cc(Cl)nc(-c2ccccc2)n1 | growth AUC | 0.965
CCC(CC)Nc1c([N+](=O)[O-])cc(C)c(C)c1[N+](=O)[O-] | growth AUC | 0.942
CCOCN(C(=O)CCl)c1c(C)cccc1CC | growth AUC | 0.974
O=C(O)C(Cl)Cl | growth AUC | 1.03
CCOP(=S)(OCC)Oc1cc(Cl)c(SC)cc1Cl | growth AUC | 0.926
CCCC1COC(Cn2cncn2)(c2ccc(Cl)cc2Cl)O1 (configuration not stated) | growth AUC | 0.855
CNC(=O)Oc1ccc(N(C)C)c(C)c1 | growth AUC | 0.986
Nc1nc(N)nc(NC2CC2)n1 | growth AUC | 1
COP(=S)(OC)Oc1ccc([N+](=O)[O-])c(C)c1 | growth AUC | 0.944
CC(C)OC(=O)Nc1cccc(Cl)c1 | growth AUC | 1.06
